Test: Solubility of compound at pH 2 by reversed-phase UPLC analysis
Assay type: physicochemical
Conditions: buffer
Measurement Type: solubility (µg/mL)
One number for each entry, in µg/mL.

Measured solubility of "[2H]C([2H])([2H])NC(=O)c1cnc(NC(=O)C2CC2)cc1Nc1cccc(-c2nnn(C)n2)c1OC" : 1680

====

Assay: Solubility of compound at pH 4 by reversed-phase UPLC analysis
Type: physicochemical
Conditions: buffer
Measurement Type: solubility
Mention the unit after the number when you answer.

Measured solubility of "[2H]C([2H])([2H])NC(=O)c1cnc(NC(=O)C2CC2)cc1Nc1cccc(-c2nnn(C)n2)c1OC" : 5 µg/mL
